target: FAAH (Homo sapiens, UniProt O00519); experiment: In vitro competitive activity-based protein profiling, FAAH, human; details: read-out: FAAH % inh. 1 μM (human)
Sequence (O00519 whole entry): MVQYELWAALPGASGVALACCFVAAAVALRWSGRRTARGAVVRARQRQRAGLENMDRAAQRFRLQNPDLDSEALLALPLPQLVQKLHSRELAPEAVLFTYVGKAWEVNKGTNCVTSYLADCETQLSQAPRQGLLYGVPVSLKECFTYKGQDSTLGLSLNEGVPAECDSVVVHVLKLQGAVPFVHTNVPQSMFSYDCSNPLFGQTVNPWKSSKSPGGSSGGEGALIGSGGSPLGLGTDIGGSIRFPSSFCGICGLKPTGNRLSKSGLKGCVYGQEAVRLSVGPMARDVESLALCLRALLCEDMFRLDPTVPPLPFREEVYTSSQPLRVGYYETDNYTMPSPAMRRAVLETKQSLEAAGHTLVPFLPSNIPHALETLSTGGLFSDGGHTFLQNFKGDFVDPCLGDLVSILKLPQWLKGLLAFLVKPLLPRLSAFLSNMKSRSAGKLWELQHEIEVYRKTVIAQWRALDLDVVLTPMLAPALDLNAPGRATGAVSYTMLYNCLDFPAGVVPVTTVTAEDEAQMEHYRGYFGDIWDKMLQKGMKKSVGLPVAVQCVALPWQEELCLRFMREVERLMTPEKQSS
Experimental Readout: inhibition at 1 µM

In [3]: df
Out[3]:
                                   compound                  experimental_target  recorded_result
0  O=C(O)c1ccn(C(=O)N2CCN(Cc3ccc(C(F)(F)F)cc3N3CC4COCC4C3)CC2)n1 (centres unmarked)  FAAH (Homo sapiens, UniProt O00519)         0 to 25%
1  NC(=O)c1ccn(C(=O)N2CCN(Cc3cnccc3C(F)(F)F)CC2)n1  FAAH (Homo sapiens, UniProt O00519)            > 75%
2  CN(Cc1ccc(C(F)(F)F)cc1N1CCOCC1)C1(C)CCN(C(=O)n2ccc(C(=O)O)n2)CC1  FAAH (Homo sapiens, UniProt O00519)         0 to 25%
3  O=C(O)c1ccn(C(=O)N2CCC3(CCN(Cc4cc(Cl)cc(Cl)c4)C3)CC2)n1  FAAH (Homo sapiens, UniProt O00519)            > 75%
4  O=C(O)c1ccn(C(=O)N2CCC3(CCN(Cc4ccc(N5CCCC5)c(Cl)c4)C3)CC2)n1  FAAH (Homo sapiens, UniProt O00519)         0 to 25%

Find the recorded inhibition at 1 µM belonging to O=C(O)c1ccn(C(=O)N2CCN(Cc3cccc(Oc4cnccn4)c3)CC2)n1 and report it.
0 to 25%

Same question, O=C(O)c1nn(C(=O)N2CCC3(CCN(Cc4ccc(N5CCCC5)cc4C(F)(F)F)C3)CC2)cc1Cl this time
0 to 25%
